experimental target: T1, human Galectin-3 (Gal3), full-length recombinant (human, UniProt P17931 2-250)
T1 construct: treated here as one molecule; also called hGAL3; hGal3
T1 sequence (P17931 2-250 limits assumed): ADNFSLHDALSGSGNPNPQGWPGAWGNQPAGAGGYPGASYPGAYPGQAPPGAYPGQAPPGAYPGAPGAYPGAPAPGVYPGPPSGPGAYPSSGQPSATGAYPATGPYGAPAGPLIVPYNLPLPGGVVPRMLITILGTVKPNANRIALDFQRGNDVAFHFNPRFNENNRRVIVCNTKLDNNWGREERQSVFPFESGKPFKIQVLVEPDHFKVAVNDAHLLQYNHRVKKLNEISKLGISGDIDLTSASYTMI
procedure details: blocking ELISA, Gal3 coated, biotin-Tau aggregates
Give % blocking of Gal3-Tau aggregates binding for every item shown.

Illustrative cases are given below, each with its answer.
15G7.2A7 (antibody, human IgG4 S228P, kappa, V domains shown, also called 15FG7.2A7) VH: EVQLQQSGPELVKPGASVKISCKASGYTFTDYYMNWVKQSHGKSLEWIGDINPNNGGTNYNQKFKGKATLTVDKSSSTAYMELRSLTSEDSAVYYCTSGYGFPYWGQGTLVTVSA VL: DIQMNQSPSSLSASLGDTISITCRASQNINIWLSWYQQKPGNIPQLLIYKASNLHTGVPSRFSGSGSGTDFTLTISSLQPEDIATYYCLQGQSYPLTFGAGTKLVMKR : > 90%
F846C.1F5 (antibody, human IgG4 S228P, kappa, V domains shown, also called 846.1F5) VH: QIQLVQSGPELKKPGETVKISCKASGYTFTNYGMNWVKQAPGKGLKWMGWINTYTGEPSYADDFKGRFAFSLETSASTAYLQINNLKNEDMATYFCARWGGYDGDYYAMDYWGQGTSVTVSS VL: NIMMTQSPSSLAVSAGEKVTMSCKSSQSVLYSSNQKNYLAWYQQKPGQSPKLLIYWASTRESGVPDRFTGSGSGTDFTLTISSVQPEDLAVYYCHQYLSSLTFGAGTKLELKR : > 90%

Record F847C.12F12 (antibody, V domains shown, also called 84712F12) VH: QIQLVQSGPELKKPGETVKISCKASGYTFTNYGMNWVKQAPGKGLKWMGWINTYTGEPTYVDDFKGRFAFSLETSASTAYLRINNLKNEDTATYFCAKFGNYVGAMDYWGQGTSVTVSS VL: DIQVIQSPSSLSASLGDTITITCHASQNINVWLSWYQQKPGNIPKLLIYKASNLHTGVPSRFSGSGSGTGFTLTISSLQPEDIATYYCQQGQSYPYTFGGGTKLELKR . Reported % blocking of Gal3-Tau aggregates binding: > 90%
